// data source = patent US20100130477A1

Form: system (human Histamine H3 receptor (hH3R) (Homo sapiens, UniProt Q9Y5N1)), quantity (pIC50), values below.
In simple prose, pIC50 is minus the logarithm base ten of a concentration in moles per litre.

{"columns": ["MOLECULE", "pIC50"],
 "data": [
  ["Cc1cccc(C(=O)N2CCC3(CC2)CC(C(=O)N2CCN(C4CCC4)CC2)C3)n1 [Example 18]", 7.27]
]}

molecule Cc1cnccc1C(=O)N1CCC2(CC1)CC(C(=O)N1CCCN(C3CCC3)CC1)C2 [Example 44] , pIC50 observed: 8.07

molecule O=C(c1cc(Cl)ccn1)N1CCC2(CC1)CC(C(=O)N1CCN(C3CCC3)CC1)C2 [Example 17] , pIC50 observed: 7.46

molecule O=C(c1cncc(Cl)c1)N1CCC2(CC1)CC(C(=O)N1CCN(C3CCC3)CC1)C2 [Example 9] , pIC50 observed: 7.68

molecule N#Cc1ccc(C(=O)N2CCC3(CC2)CC(C(=O)N2CCN(C4CCC4)CC2)C3)nc1 [Example 15] , pIC50 observed: 7.50

---

Form: system (human Histamine H3 receptor (hH3R) (Homo sapiens, UniProt Q9Y5N1)), quantity (IC50), values below.
Write the numeric value and follow it with the unit.

The measured IC50 that Cc1cc(C(=O)N2CCC3(CC2)CC(C(=O)N2CCN(C4CCC4)CC(C)(C)C2)C3)ccn1 [Example 57] showed for human Histamine H3 receptor (hH3R) (Homo sapiens, UniProt Q9Y5N1) is 707 nM

The measured IC50 that N#Cc1ccccc1C(=O)N1CCC2(CC1)CC(C(=O)N1CCCN(C3CCC3)CC1)C2 [Example 51] showed for human Histamine H3 receptor (hH3R) (Homo sapiens, UniProt Q9Y5N1) is 5.02 nM

The measured IC50 that O=C(c1ccccn1)N1CCC2(CC1)CC(C(=O)N1CCN(C3CCC3)CC1)C2 [Example 20] showed for human Histamine H3 receptor (hH3R) (Homo sapiens, UniProt Q9Y5N1) is 48 nM

---

biological target: human Histamine H3 receptor (hH3R) (Homo sapiens); construct: expressed in transfected cells; host or cells: CHO cells (Chinese Hamster Ovary); membranes; experiment: GTPγS Binding Assay (antagonist activity, [35S]GTPγS, (R)-α-methyl histamine 30 nM); type: biochemical; conditions: membranes from CHO cells expressing hH3R, 90 minutes at room temperature
Sequence (Q9Y5N1 whole entry): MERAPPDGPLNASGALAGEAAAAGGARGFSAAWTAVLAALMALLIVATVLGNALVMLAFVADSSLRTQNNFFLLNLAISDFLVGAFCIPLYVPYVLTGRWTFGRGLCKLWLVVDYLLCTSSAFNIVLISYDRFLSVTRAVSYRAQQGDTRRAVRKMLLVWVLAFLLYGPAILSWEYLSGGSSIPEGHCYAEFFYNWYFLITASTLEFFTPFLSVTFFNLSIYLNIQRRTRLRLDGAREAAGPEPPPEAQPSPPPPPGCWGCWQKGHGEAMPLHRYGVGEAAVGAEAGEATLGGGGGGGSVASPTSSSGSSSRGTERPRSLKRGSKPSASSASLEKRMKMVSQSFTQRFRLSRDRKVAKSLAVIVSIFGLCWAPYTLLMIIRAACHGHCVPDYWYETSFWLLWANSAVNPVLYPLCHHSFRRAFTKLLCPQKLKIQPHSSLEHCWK
VALUE_TYPE: pIC50
In simple prose, pIC50 is minus the logarithm base ten of a concentration in moles per litre.

{"columns": ["STRUCTURE_STRING", "MEASURED_VALUE"],
 "data": [
  ["O=C(c1ccncc1)N1CCC2(CC1)CC(C(=O)N1CCCN(C3CCC3)CC1)C2", 8.12],
  ["Cc1cnccc1C(=O)N1CCC2(CC1)CC(C(=O)N1CCN(C3CCC3)CC1)C2", 8.22]
]}

molecule Cc1ncccc1C(=O)N1CCC2(CC1)CC(C(=O)N1CCN(C3CCC3)CC1)C2 , pIC50 observed: 7.55
